This collection of values is drawn from patent US20250034149A1.

- systemName: PD brain-derived alpha-synuclein aggregates (Homo sapiens, UniProt P37840)
- Construct: from tissue; host or cells: human PD donor brain tissue, sarkosyl-insoluble fraction
- measurementNotes: Micro-radiobinding competition assay for the determination of binding affinity
- runParameters: 100 nM non-radiolabelled example compound, competition over tritiated reference alpha-synuclein ligand (6 nM, 20 nM or 30 nM)
propertyLabel: inhibition at 0.1 µM (%)

1. Cn1cc(N2Cc3cn(-c4ccc(N5CC[C@H](F)C5)nc4)nc3C2=O)cn1
2. O=C1c2nn(-c3ccc(N4CC[C@H](F)C4)nc3)cc2CN1c1cncs1
3. Cc1ncc(N2Cc3cn(-c4ccc(N5CC[C@@H](F)C5)nc4)nc3C2=O)s1
In: List the 3 entries from lowest inhibition at 0.1 µM to highest inhibition at 0.1 µM value. # list labels per requested ordering
Out: 1, 2, 3

1. Cc1ncc(N2Cc3cn(-c4ccc(OCCF)nc4)nc3C2=O)s1
2. COc1cncc(N2Cc3cn(-c4ccc(N5CC[C@H](F)C5)nc4)nc3C2=O)c1
3. Cn1cc(N2Cc3cn(-c4ccc(N5CC(F)C5)nc4)nc3C2=O)cn1
In: Please give the order of these compounds when sorted by inhibition at 0.1 µM, largest value leading. # respond with the labels, arranged in the requested order
Out: 1, 3, 2
(1: 55%, 3: 38%, 2: 26%)

====

- systemName: PD brain-derived alpha-synuclein aggregates (Homo sapiens, UniProt P37840)
- Construct: from tissue; host or cells: human PD donor brain tissue, sarkosyl-insoluble fraction
- measurementNotes: Micro-radiobinding competition assay for the determination of binding affinity
- runParameters: 1 μM non-radiolabelled example compound, competition over tritiated reference alpha-synuclein ligand (6 nM, 20 nM or 30 nM)
Where a name gives a salt, the structure may show the parent alone.
propertyLabel: inhibition at 1 µM (%)

The examples below pair each entry with its known result.
molecule	systemName	inhibition at 1 µM [%]
O=C1c2nn(-c3ccc(N4CC[C@H](F)C4)nc3)cc2CN1c1cncs1	PD brain-derived alpha-synuclein aggregates (Homo sapiens, UniProt P37840)	90
Cc1ncc(N2Cc3cn(-c4ccc(N5CC[C@@H](F)C5)nc4)nc3C2=O)s1	PD brain-derived alpha-synuclein aggregates (Homo sapiens, UniProt P37840)	92
Cn1cc(N2Cc3cn(-c4ccc(N5CC(F)C5)nc4)nc3C2=O)cn1	PD brain-derived alpha-synuclein aggregates (Homo sapiens, UniProt P37840)	89
O=C1c2nn(-c3ccc(N4CC[C@@H](F)C4)nc3)cc2CN1c1cccnc1	PD brain-derived alpha-synuclein aggregates (Homo sapiens, UniProt P37840)	86
Cc1ccc(N2Cc3cn(-c4ccc(N5CC[C@H](F)C5)nc4)nc3C2=O)cn1	PD brain-derived alpha-synuclein aggregates (Homo sapiens, UniProt P37840)	87
Cc1ncc(N2Cc3cn(-c4ccc(N5CC[C@H](F)C5)nc4)nc3C2=O)s1	PD brain-derived alpha-synuclein aggregates (Homo sapiens, UniProt P37840)	90

I. O=C1c2nn(-c3ccc(N4CC[C@@H](F)C4)nc3)cc2CN1c1cncs1
II. COc1cncc(N2Cc3cn(-c4ccc(N5CC[C@@H](F)C5)nc4)nc3C2=O)c1
In: Which is greater in inhibition at 1 µM, the first item I or the second item II ? Give the label of your selection.
Out: I

P. Cc1ncc(N2Cc3cn(-c4ccc(OCCF)nc4)nc3C2=O)s1
Q. COc1cncc(N2Cc3cn(-c4ccc(N5CC[C@H](F)C5)nc4)nc3C2=O)c1
In: // pick larger inhibition at 1 µM from pair: P vs Q Write down the label of the entry you select.
Out: P

P. Cn1cc(N2Cc3cn(-c4ccc(N5CCCC(F)CC5)nc4)nc3C2=O)cn1 (stereo not shown) [Example 14, hydrochloride]
Q. O=C1c2nn(-c3ccc(N4CC[C@@H](F)C4)nc3)nc2CN1c1cccnc1
In: Between P and Q , which one shows the smaller inhibition at 1 µM number? Lab note: record the label of whichever item you select.
Out: P
